System: SK-OV-3
method_notes: NCI tumour cell line growth inhibition, 48 h
Calls of active or inactive are those of the source. Rule as the data show it: active = GI50 up to about 1.1 µM and inactive = higher.
Please go through the items and note down their GI50.

Check out these entries, answers already filled in.
- COc1ccc(/N=N/c2ccc3oc(=O)c(C(=O)Nc4ccc(Cl)cc4)cc3c2)cc1: > 10 µM (inactive)
- CC1OC(c2ccc3c(c2O)C(=O)C2=C(C3=O)C3(O)C(=O)CC(C)(O)CC3(O)C=C2)CC(O)C1O (centres undefined): 41.3 µM (inactive)

Please give GI50 for each item listed below.
1. CC(C)[Si](OC1=CCC[C@H]2NC(=O)[C@@H](Cc3ccc([N+](=O)[O-])cc3)[C@@]12C)(C(C)C)C(C)C
2. COc1cccc(C2c3cc4c(cc3OC(N3CCOCC3)C2C)OCO4)c1O (centres undefined)

1. 10.1 µM (inactive)
2. 5.56 µM (inactive)

----------
System: TK-10
method_notes: NCI tumour cell line growth inhibition, 48 h
The source made the active and inactive calls. Cut-off read from the data, not from the text of the source: active = GI50 up to about 1.1 µM and inactive = higher.
reported_property: GI50

Check out these entries, answers already filled in.
• O=C1C[S+]([O-])C23c4cc5ccccc5n4CCC2CCCN13 (stereo not drawn) = > 100 µM (inactive)
• C1CN2CCO[SiH](O1)OCC2 = > 100 µM (inactive)
• CC(C)CCC[C@@H](C)C1CCC2[C@@H]3CCC4C[C@@H](NS(C)(=O)=O)CC[C@]4(C)C3CC[C@@]21C (stereo partly drawn) = > 100 µM (inactive)
• CC12CCC(C(=O)OC1=O)C(C)(C)O2 (stereo not drawn) = > 100 µM (inactive)
• [O-][S+]1Cc2ccccc2CS1 (stereo not drawn) = 21.8 µM (inactive)

Please give GI50 for each item listed below.
1. CCS/C(=N\c1ccccc1)SC
2. CCCCCCCCc1cc2c(O)c(c1)Cc1cc(CCCCCCCC)cc(c1O)Cc1cc(CCCCCCCC)cc(c1O)Cc1cc(CCCCCCCC)cc(c1O)Cc1cc(CCCCCCCC)cc(c1O)Cc1cc(CCCCCCCC)cc(c1O)C2

1. > 100 µM (inactive)
2. > 100 µM (inactive)

Please give GI50 for each item listed below.
1. CC(=N/NC(=S)Nc1c(C)n(C)n(-c2ccccc2)c1=O)/C(C)=N\NC(=S)Nc1c(C)n(C)n(-c2ccccc2)c1=O
2. CC(=O)O[C@H]1[C@@H](N2CCCCC2)C[C@H]2[C@@H]3CC=C4C[C@@H](N5CCCC5)CC[C@]4(C)[C@H]3CC[C@@]21C

> 100 µM (inactive)
> 100 µM (inactive)

Please give GI50 for each item listed below.
1. O=C1/C(=C/c2ccc(O)cc2)CCCC1CN1CCCCC1 (stereo not drawn)
2. OCCc1ccsc1-c1sc(-c2cc(CCO)c(-c3sccc3CCO)s2)cc1CCO
3. COc1ccc(C2=NN(C(=O)c3ccc(Cl)cc3)C(O)(c3cc(F)c(Cl)cc3Cl)C2)cc1 (stereo not drawn)
4. COc1cc(/C=C(\NC(=O)c2ccccc2)c2nc3c(O)nc(S)nc3[nH]2)cc(OC)c1OC
5. O=c1/c(=C/c2ccc(Cl)cc2Cl)sc2nc3ccccc3n12
6. CC1CC2C3CCC4=CC(=O)C=CC4(C)C3(F)C(O)CC2(C)C1(O)C(=O)COP(=O)(O)O (stereo not drawn)

2.55 µM (inactive)
19.5 µM (inactive)
> 100 µM (inactive)
> 100 µM (inactive)
> 100 µM (inactive)
> 100 µM (inactive)

Please give GI50 for each item listed below.
1. CN(C)CCCNc1ccc2nnn3c4ccc(OC(=O)c5ccc([N+](=O)[O-])cc5)cc4c(=O)c1c23
2. C=C1CCC(O)C/C1=C/C=C1\CCCC2(C)C1CCC2C(C)CCCC(C)C (stereo not drawn)
3. COC(=O)C1C(O)C(C)C(O)C(C)C=C(C)C2=C3C(=C(C)C(=O)c4c(O)c(c(C)c(OC(C)=O)c43)NC(=O)C(C)=C/C=C\C(C)C(O)C(C)C1O)OCO2 (stereo not drawn)

1: 5.82 µM (inactive); 2: 12.3 µM (inactive); 3: 56.1 µM (inactive)

----------
Please go through the items and note down their GI50.
System: SK-MEL-28
method_notes: NCI tumour cell line growth inhibition, 48 h
The source made the active and inactive calls. Cut-off read from the data, not from the text of the source: active = GI50 up to about 1.1 µM and inactive = higher.

• CC(=O)O[C@H]1[C@@H](N2CCCCC2)C[C@H]2[C@@H]3CC=C4C[C@@H](N5CCCC5)CC[C@]4(C)[C@H]3CC[C@@]21C = 22 µM (inactive)
• O=c1oc(-c2ccccc2)c(-c2ccccc2)n1-c1ccc(Br)cc1 = > 100 µM (inactive)
• CCOC(=O)c1c(SCC#N)n(-c2ccccc2)c(=S)n(-c2ccccc2)c1=O = 57.9 µM (inactive)

Please give GI50 for each item listed below.
1. COc1cc(CNc2nc3c(NC(C)=O)cc(C(F)(F)F)cc3nc2-c2ccccc2)cc(OC)c1OC
2. N#Cc1c(-c2ccco2)cc(-c2ccc(NCc3nc4ccccc4[nH]3)cc2)nc1N
3. CC(=O)NNc1nc(C)c(C(=O)/C=C/C=C/c2ccccc2)s1
4. Cc1cc(NCC2CC/C(=C\C=C\c3ccccc3)C2=O)no1 (centres undefined)
5. OC(C/C(=N\N=C(/CC(O)(C(F)(F)F)C(F)(F)F)c1ccccc1)c1ccccc1)(C(F)(F)F)C(F)(F)F
6. O=C1/C(=C/c2ccc(O)cc2)CCCC1CN1CCCCC1 (centres undefined)

1: > 100 µM (inactive); 2: 27.5 µM (inactive); 3: > 100 µM (inactive); 4: > 100 µM (inactive); 5: > 10 µM (inactive); 6: 5.43 µM (inactive)

----------
Test system: MDA-MB-231
method_notes: NCI tumour cell line growth inhibition, 48 h
Active and inactive are the calls of the source. Cut-off read from the data, not from the text of the source: active = GI50 up to about 1.1 µM and inactive = higher.
// one of yes (1) for active, no (0) for inactive, no free text

# example entries with known answers
- COc1ccc(C(=C2C=CC=C2)c2ccc(OC)cc2)cc1: no (0)
- COc1cccc(N2C(=O)C3CC(CC(C)(C)C)c4c([nH]c5ccccc45)C3C2=O)c1 (stereo not drawn): no (0)
- Cc1nn(C(=O)Cc2ccccc2)c2c1C(c1ccc(O)cc1)SC(=N)N2 (stereo not drawn): no (0)
- CC1=NC(=Cc2ccc(O)cc2)C(=O)N1n1c(-c2ccccc2)nc2ccccc2c1=O: no (0)
- Cc1ccc(C(=O)/C=C/N2CCN(c3cccc(C(F)(F)F)c3)CC2)cc1: no (0)
- Cc1cc(=O)n2nc(CSc3nnc(Sc4cc(O)ccc4O)s3)sc2n1: no (0)
- C=C1C(=O)C=C2C=C3C(=O)C(C)(C)C[C@]3(O)C12C (stereo partly drawn): no (0)
- COc1cc(C(=O)O)c(-c2cc3c(cc2C=O)OCO3)c(OC)c1OC: no (0)
- C/C(=N\Nc1nc2ccccc2o1)c1ccncn1: yes (1)
- C=C(C)[C@H]1CC23C(=O)C(C(=O)C(C)C)=C(O)[C@](C)(C[C@H]2C1(C)C)C3=O: no (0)

Hello, I am checking results. What call was entered for CCCNC(=O)CCC(C)[C@H]1CCC2C3C(C[C@H](OC(C)=O)[C@@]21C)[C@@]1(C)CCC2(C[C@H]1C[C@H]3OC(C)=O)OOC1(CCCCC1)OO2 (stereo partly drawn) ? no (0)

Hello, I am checking results. What call was entered for Nc1nc(Cl)c(N)c(NCC2(CO)CC(Cc3ccccc3)C2)n1 (stereo not drawn) ? no (0)

----------
System: PC-3
method_notes: NCI tumour cell line growth inhibition, 48 h
The source made the active and inactive calls. Cut-off read from the data, not from the text of the source: active = GI50 up to about 1.1 µM and inactive = higher.
reported_property: GI50

Check out these entries, answers already filled in.
* COP(=O)(OC)C(Cc1c[nH]c2ccccc12)NC(=O)OCc1ccccc1 (stereo not given) | > 100 µM (inactive)
* O=C(c1cc(Cl)ccc1Cl)N1CCN(C(=O)c2cc(Cl)ccc2Cl)CC1 | > 100 µM (inactive)
* N=c1oc2ccccc2cc1C(=O)NC12CC3CC(CC(C3)C1)C2 | 17.8 µM (inactive)
* NCCCN(CCCCN(CCCN)CCCc1ccccc1)CCCc1ccccc1 | 3.22 µM (inactive)
* COc1ccc(C(=C2C=CC=C2)c2ccc(OC)cc2)cc1 | 47.5 µM (inactive)

Please give GI50 for each item listed below.
1. CC1CN(CCO)CCN1c1ccccc1 (stereo not given)
2. Cc1ccc(C(=O)N/N=C(\N=N\c2cccc([N+](=O)[O-])c2)c2ccc(N(C)C)cc2)cc1
3. CN(C)C(Cc1c[nH]cn1)C(=O)N1CCCC1C(N)=O (stereo not given)
4. COc1ccc(-c2c3c(nc4[nH]c(=S)[nH]c(=S)c24)CCCC3)cc1OC

> 100 µM (inactive)
> 100 µM (inactive)
> 100 µM (inactive)
24 µM (inactive)

Please give GI50 for each item listed below.
1. COc1ccc(C(=O)c2sc(Nc3ccc(Cl)cc3)nc2N)cc1
2. CC(=N/NC(=S)Nc1c(C)n(C)n(-c2ccccc2)c1=O)/C(C)=N\NC(=S)Nc1c(C)n(C)n(-c2ccccc2)c1=O

["12.1 µM (inactive)", "> 100 µM (inactive)"]

Please give GI50 for each item listed below.
1. COc1ccc(-c2nc(N)c(C#N)c3c2CCSc2ccc(C)cc2-3)cc1OC
2. Cc1ccc(-n2cc(-c3ccc(Cl)cc3)c(C#N)c2N)cc1
3. CNC(=S)/N=c1/sc(NC)nc2sc3c(c12)CCCC3
4. CC(=O)O[C@H]1[C@@H](N2CCCCC2)C[C@H]2[C@@H]3CC=C4C[C@@H](N5CCCC5)CC[C@]4(C)[C@H]3CC[C@@]21C
5. CCOC(=O)C(NC(=O)CC(C)C)(Nc1ccc(C(F)(F)F)cc1)C(F)(F)F (stereo not given)
6. COc1ccc(S(=O)(=O)O)cc1-n1nc(C(=O)Nc2ccccc2)n[n+]1-c1cc(S(=O)(=O)[O-])ccc1OC

["8.51 µM (inactive)", "12.6 µM (inactive)", "> 100 µM (inactive)", "43.4 µM (inactive)", "20 µM (inactive)", "> 100 µM (inactive)"]
